System: HCT-116
PROCEDURE SUMMARY: Cytotoxicity against human HCT116 cells after 72 hrs by MTT assay
Assay type: functional, cell-based
MEASUREMENT CONDITIONS: HCT-116, 72 h
MEASURED ENDPOINT: pIC50
By convention, pIC50 is the negative base-10 log of a molar concentration.

// known answers, use as guide
{"COMPOUND STRUCTURE": "CCCO[C@H]1C=C[C@@H](OC(C)=O)[C@H](C)O1", "TGT": "HCT-116", "MEASURED ENDPOINT": "pIC50", "ASSAY RESULT": 3.26}
{"COMPOUND STRUCTURE": "CC(=O)O[C@@H]1C=C[C@H](OCCCCCOc2cc(O)c3c(=O)c(-c4ccc(O)cc4)coc3c2)O[C@H]1C", "TGT": "HCT-116", "MEASURED ENDPOINT": "pIC50", "ASSAY RESULT": 5.09}
{"COMPOUND STRUCTURE": "O=c1c(-c2ccc(O)cc2)coc2cc(O)cc(O)c12", "TGT": "HCT-116", "MEASURED ENDPOINT": "pIC50", "ASSAY RESULT": 4.46}
{"COMPOUND STRUCTURE": "CC(=O)OC[C@H]1O[C@H](OCCCCCOc2cc(O)c3c(=O)c(-c4ccc(O)cc4)coc3c2)C=C[C@@H]1OC(C)=O", "TGT": "HCT-116", "MEASURED ENDPOINT": "pIC50", "ASSAY RESULT": 5.07}
{"COMPOUND STRUCTURE": "O=c1c(-c2ccc(O)cc2)coc2cc(OCCCCCO)cc(O)c12", "TGT": "HCT-116", "MEASURED ENDPOINT": "pIC50", "ASSAY RESULT": 5.16}

Query block: Check the records and state pIC50 for CC(=O)OC[C@H]1O[C@H](OCCCOc2cc(O)c3c(=O)c(-c4ccc(O)cc4)coc3c2)C=C[C@@H]1OC(C)=O
Result block: 4.70

Query block: Check the records and state pIC50 for O=c1c(-c2ccc(O)cc2)coc2cc(OCCO)cc(O)c12
Result block: 4.60

Query block: Answer with the recorded pIC50 of O=c1c(-c2ccc(O)cc2)coc2cc(OCCCO)cc(O)c12 only.
Result block: 4.62

Query block: Complete the entry with pIC50 for CC(=O)O[C@@H]1C=C[C@H](OCCOc2cc(O)c3c(=O)c(-c4ccc(O)cc4)coc3c2)O[C@H]1C
Result block: 5.03

Query block: Name the recorded pIC50 of the compound listed here: CC(=O)O[C@@H]1C=C[C@H](OCCCOc2cc(O)c3c(=O)c(-c4ccc(O)cc4)coc3c2)O[C@H]1C
Result block: 5.32
